assay method text: refractive index (Na D-line) (dimensionless)
condition parameters: 293.15 K; 101.33 kPa; Liquid; Standard Abbe refractometry
Quick list: refractive index per entry.
assay endpoint: refractive index

> print(dat)
                  molecule  measured
1  OCCCO [propan-1,3-diol]    1.4393
2                O [water]     1.333
3            CCO [ethanol]     1.362
4            CO [methanol]    1.3285
